- Test System: Crimean-Congo hemorrhagic fever virus L protein viral ovarian tumor (vOTU) protease domain
- Assay Explanation: CCHFV vOTU protease inhibitor potency, dose response, biochemical, fluorescence, Pep-AMC substrate (AID 720578)
- Stated Conditions: recombinant CCHFV vOTU, Pep-AMC fluorescence cleavage
Active and inactive are the calls of the source. How the calls were made is not given here.
Quantity: IC50

Compound: O=[N+]([O-])c1c(Nc2ccccn2)cc(Cl)c2nonc12
Test System: Crimean-Congo hemorrhagic fever virus L protein viral ovarian tumor (vOTU) protease domain
Measurement: inactive
//
Compound: O=S(=O)(Nc1cc2nc3ccccc3nc2n1Cc1ccccc1)c1ccc(Cl)cc1
Test System: Crimean-Congo hemorrhagic fever virus L protein viral ovarian tumor (vOTU) protease domain
Measurement: 2.57 µM
//
Compound: O=C(OCc1nnc(-c2ccccc2)o1)c1ccc([N+](=O)[O-])s1
Test System: Crimean-Congo hemorrhagic fever virus L protein viral ovarian tumor (vOTU) protease domain
Measurement: 7.52 µM
//
Compound: CCCCCCCCCCCCCCCCn1cc[n+](C)c1
Test System: Crimean-Congo hemorrhagic fever virus L protein viral ovarian tumor (vOTU) protease domain
Measurement: inactive
//
Compound: CNc1ccc2nc3ccccc3[n+](C)c2c1
Test System: Crimean-Congo hemorrhagic fever virus L protein viral ovarian tumor (vOTU) protease domain
Measurement: inactive
//
Compound: CCn1nc(/C=C/c2ccccc2)nc2c(=O)n(C)c(=O)nc1-2
Test System: Crimean-Congo hemorrhagic fever virus L protein viral ovarian tumor (vOTU) protease domain
Measurement: 0.276 µM
//
Compound: CCOC(=O)c1cc2c(=Cc3ccc(N(C)C)cc3)c3ccccc3n2[n+]1C
Test System: Crimean-Congo hemorrhagic fever virus L protein viral ovarian tumor (vOTU) protease domain
Measurement: 7.38 µM
//
Compound: C[n+]1c2ccccc2nc2ccc(NCCO)cc21
Test System: Crimean-Congo hemorrhagic fever virus L protein viral ovarian tumor (vOTU) protease domain
Measurement: 5.96 µM
//
Compound: COc1ccc(CNC(=O)c2c(C)oc3c2C(=O)c2ccccc2C3=O)cc1
Test System: Crimean-Congo hemorrhagic fever virus L protein viral ovarian tumor (vOTU) protease domain
Measurement: 8.2 µM
//
Compound: C[n+]1cccc2cccc([O-])c21
Test System: Crimean-Congo hemorrhagic fever virus L protein viral ovarian tumor (vOTU) protease domain
Measurement: 6.41 µM
//
Compound: O=C(c1ccccc1)c1coc2c1C(=O)c1ccccc1C2=O
Test System: Crimean-Congo hemorrhagic fever virus L protein viral ovarian tumor (vOTU) protease domain
Measurement: 6.61 µM
//
Compound: c1coc(-c2nnc(-c3ccco3)nn2)c1
Test System: Crimean-Congo hemorrhagic fever virus L protein viral ovarian tumor (vOTU) protease domain
Measurement: 9.33 µM
//
Compound: CC1(OC(=O)C2CCCC2)C(=O)C=C2C=C(c3ccsc3)N(CCCCO)C=C2C1=O (stereo unspecified)
Test System: Crimean-Congo hemorrhagic fever virus L protein viral ovarian tumor (vOTU) protease domain
Measurement: inactive
//
Compound: Cc1cc(C)c(S(=O)(=O)/N=C2\C=C(Nc3ccc(C(=O)O)cc3)C(=O)c3ccccc32)c(C)c1
Test System: Crimean-Congo hemorrhagic fever virus L protein viral ovarian tumor (vOTU) protease domain
Measurement: 1.72 µM
//
Compound: NC1=CC(=O)C(=O)c2cccnc21
Test System: Crimean-Congo hemorrhagic fever virus L protein viral ovarian tumor (vOTU) protease domain
Measurement: 1.85 µM
//
Compound: CCCCn1c(NS(=O)(=O)c2ccccc2)c(C(=O)OCC)c2nc3ccccc3nc21
Test System: Crimean-Congo hemorrhagic fever virus L protein viral ovarian tumor (vOTU) protease domain
Measurement: > 115 µM (inactive)
//
Compound: S=C(Nc1ccc2nsnc2c1)N1CCCCCC1
Test System: Crimean-Congo hemorrhagic fever virus L protein viral ovarian tumor (vOTU) protease domain
Measurement: inactive
//
Compound: Cc1ccccc1NC1=C/C(=N\S(=O)(=O)c2cccs2)c2ccccc2C1=O
Test System: Crimean-Congo hemorrhagic fever virus L protein viral ovarian tumor (vOTU) protease domain
Measurement: 0.249 µM
//
Compound: Oc1c(N=Nc2nn[nH]n2)ccc2ccccc12
Test System: Crimean-Congo hemorrhagic fever virus L protein viral ovarian tumor (vOTU) protease domain
Measurement: 5.11 µM
//
Compound: Cn1c(=O)c2c(-c3ccccc3)n(-c3ccc(N)cc3)cc2n(C)c1=O
Test System: Crimean-Congo hemorrhagic fever virus L protein viral ovarian tumor (vOTU) protease domain
Measurement: 4.53 µM
//
Compound: COc1cc(NCCCCCCN)c2ncccc2c1OC
Test System: Crimean-Congo hemorrhagic fever virus L protein viral ovarian tumor (vOTU) protease domain
Measurement: 3.65 µM
//
Compound: COc1ccccc1N=Nc1c(O)[nH]c(=S)[nH]c1=O
Test System: Crimean-Congo hemorrhagic fever virus L protein viral ovarian tumor (vOTU) protease domain
Measurement: inactive
//
Compound: CCCCCCCCCCCCN1[C@@H](CC(=O)O)c2cc(F)ccc2S1(=O)=O
Test System: Crimean-Congo hemorrhagic fever virus L protein viral ovarian tumor (vOTU) protease domain
Measurement: inactive
//
Compound: CCOC(=O)C1=C(COC(=O)c2ccc([N+](=O)[O-])s2)NC(=O)NC1C (stereo unspecified)
Test System: Crimean-Congo hemorrhagic fever virus L protein viral ovarian tumor (vOTU) protease domain
Measurement: 7.84 µM
//
Compound: CCOC(=O)c1cc2c(ccn2C)n1Cc1ccccc1C
Test System: Crimean-Congo hemorrhagic fever virus L protein viral ovarian tumor (vOTU) protease domain
Measurement: > 115 µM (inactive)
//
Compound: CCc1ccc(S(=O)(=O)/N=C2\C=C(Nc3cccc(C(=O)O)c3)C(=O)c3ccccc32)cc1
Test System: Crimean-Congo hemorrhagic fever virus L protein viral ovarian tumor (vOTU) protease domain
Measurement: 0.833 µM
//
Compound: Cc1ccc(NC2=CC(=O)C(=O)c3ccccc32)cc1
Test System: Crimean-Congo hemorrhagic fever virus L protein viral ovarian tumor (vOTU) protease domain
Measurement: 7.14 µM
//
Compound: O=C(/C=C/c1ccc([N+](=O)[O-])s1)N1CCCCC1
Test System: Crimean-Congo hemorrhagic fever virus L protein viral ovarian tumor (vOTU) protease domain
Measurement: inactive
//
Compound: CCC(COC)Oc1cc(NCc2ccccc2)c2ncn(C(C)C)c2c1 (stereo unspecified)
Test System: Crimean-Congo hemorrhagic fever virus L protein viral ovarian tumor (vOTU) protease domain
Measurement: 5.43 µM
//
Compound: NC1=C(Br)C(=O)c2ncccc2C1=O
Test System: Crimean-Congo hemorrhagic fever virus L protein viral ovarian tumor (vOTU) protease domain
Measurement: 0.435 µM
//
Compound: COC1=C(Br)C(=O)c2nc(C)ccc2C1=O
Test System: Crimean-Congo hemorrhagic fever virus L protein viral ovarian tumor (vOTU) protease domain
Measurement: 9.43 µM
//
Compound: C[n+]1c(-c2ccccc2)cc2c(=Cc3ccccc3)c3ccccc3n21
Test System: Crimean-Congo hemorrhagic fever virus L protein viral ovarian tumor (vOTU) protease domain
Measurement: 4.95 µM
//
Compound: CC(C)(C)c1cc[n+](C2=C([O-])c3ccccc3C(=O)/C2=N\S(=O)(=O)c2cccs2)cc1
Test System: Crimean-Congo hemorrhagic fever virus L protein viral ovarian tumor (vOTU) protease domain
Measurement: 6.78 µM
//
Compound: Cc1cc(=O)c2c(o1)C(=O)c1occc1C2=O
Test System: Crimean-Congo hemorrhagic fever virus L protein viral ovarian tumor (vOTU) protease domain
Measurement: 6.05 µM
//
Compound: O=C(COC(=O)c1ccc([N+](=O)[O-])s1)NCc1ccc(F)cc1
Test System: Crimean-Congo hemorrhagic fever virus L protein viral ovarian tumor (vOTU) protease domain
Measurement: 8.08 µM
//
Compound: O=C1Cc2ccccc2C(=O)N1
Test System: Crimean-Congo hemorrhagic fever virus L protein viral ovarian tumor (vOTU) protease domain
Measurement: 0.396 µM
//
Compound: CCCNC1=C(N(C(C)=O)c2cccc(F)c2)C(=O)c2ccccc2C1=O
Test System: Crimean-Congo hemorrhagic fever virus L protein viral ovarian tumor (vOTU) protease domain
Measurement: inactive
//
Compound: O=C(O)CSc1cc(NS(=O)(=O)c2cccc([N+](=O)[O-])c2)c2ccccc2c1O
Test System: Crimean-Congo hemorrhagic fever virus L protein viral ovarian tumor (vOTU) protease domain
Measurement: 2.44 µM
//
Compound: C[n+]1c(-c2ccccc2)c2cc(N)ccc2c2ccc(N)cc21
Test System: Crimean-Congo hemorrhagic fever virus L protein viral ovarian tumor (vOTU) protease domain
Measurement: 3.68 µM
//
Compound: O=S(=O)(Nc1c(S(=O)(=O)c2ccccc2)c2nc3ccccc3nc2n1C1CCCCC1)c1ccccc1
Test System: Crimean-Congo hemorrhagic fever virus L protein viral ovarian tumor (vOTU) protease domain
Measurement: > 115 µM (inactive)
//
Compound: S=C(Nc1ccc(Cl)cc1)Nc1cccc2cnccc12
Test System: Crimean-Congo hemorrhagic fever virus L protein viral ovarian tumor (vOTU) protease domain
Measurement: 6.44 µM
//
Compound: COc1cc(C=c2c3ccccc3n3c2cc(-c2ccccc2)[n+]3C)cc(OC)c1OC
Test System: Crimean-Congo hemorrhagic fever virus L protein viral ovarian tumor (vOTU) protease domain
Measurement: 6.76 µM
//
Compound: Cn1c2ccccc2c2cc(/C=N/NC(=O)c3cc(O)ccc3O)ccc21
Test System: Crimean-Congo hemorrhagic fever virus L protein viral ovarian tumor (vOTU) protease domain
Measurement: 9.12 µM
//
Compound: CC1OC(CC(=O)O)CC2=C1C(=O)c1c(O)cccc1C2=O (stereo unspecified)
Test System: Crimean-Congo hemorrhagic fever virus L protein viral ovarian tumor (vOTU) protease domain
Measurement: 3.82 µM
//
Compound: O=[N+]([O-])c1cc(O)c2ncccc2c1
Test System: Crimean-Congo hemorrhagic fever virus L protein viral ovarian tumor (vOTU) protease domain
Measurement: inactive
//
Compound: O=C(NC1=CC(=O)c2ccccc2C1=O)c1ccccc1
Test System: Crimean-Congo hemorrhagic fever virus L protein viral ovarian tumor (vOTU) protease domain
Measurement: 3.85 µM
